# test_method_notes: Luminescence activity assay of purified Gaussia luciferase mutants on fluoro-coelenterazine
# Type: biochemical
# Design: key: ratio of mutant luminescence intensity to wild-type Gaussia luciferase
# run_parameters: Substrate f-CTZ (Table 16)
reported_property: Activity of mutant relative to wild-type Gaussia luciferase without the signal peptide

molecule	result
S103I A104G E110G L124M V138D: Gaussia luciferase mutant (protein, SIGNAL (1)..(17), Gaussia luciferase mutant) MGVKVLFALICIAVAEAKPTENNEDFNIVAVASNFATTDLDADRGKLPGKKLPLEVLKEMEANARKAGCTRGCLICLSHIKCTPKMKKFIPGRCHTYEGDKEIGQGGIGGAIVDIPEIPGFKDMEPMEQFIAQVDLCDDCTTGCLKGLANVQCSDLLKKWLPQRCATFASKIQGQVDKIKGAGGD	1.701
